B1: LINE1-full (parent)
chain: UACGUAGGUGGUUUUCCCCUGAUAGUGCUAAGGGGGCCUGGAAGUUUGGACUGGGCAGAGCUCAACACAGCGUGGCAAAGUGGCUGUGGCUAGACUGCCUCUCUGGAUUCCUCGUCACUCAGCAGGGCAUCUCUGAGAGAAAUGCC

Variants of: B1
TEST_SUMMARY: self-cleavage, relative activity (ratio to wild type); higher = more cleavage; in vitro, sequencing; the parent is a self-cleaving ribozyme
ENDPOINT_NAME: self-cleavage

VARIANT_STRING: U73G U102A
QUANTITATIVE_RESULT: 1.22

VARIANT_STRING: U14C A78C
QUANTITATIVE_RESULT: 1.74

VARIANT_STRING: C17A A142C
QUANTITATIVE_RESULT: 1.9

VARIANT_STRING: U15A G21A
QUANTITATIVE_RESULT: 1.15

VARIANT_STRING: U1C G41A
QUANTITATIVE_RESULT: 0.52

VARIANT_STRING: U13A C37U
QUANTITATIVE_RESULT: 0.72

VARIANT_STRING: U47G U85A
QUANTITATIVE_RESULT: 0.05

VARIANT_STRING: U23A U130A
QUANTITATIVE_RESULT: 1.52

VARIANT_STRING: U5C G127C
QUANTITATIVE_RESULT: 1.12

VARIANT_STRING: A79G U81G
QUANTITATIVE_RESULT: 0.43

VARIANT_STRING: U115A A138C
QUANTITATIVE_RESULT: 1.8

VARIANT_STRING: A31U G33C
QUANTITATIVE_RESULT: 0.81

VARIANT_STRING: U39C A107C
QUANTITATIVE_RESULT: 2.09

VARIANT_STRING: U23C A77G
QUANTITATIVE_RESULT: 1.24

VARIANT_STRING: U100G C113U
QUANTITATIVE_RESULT: 1.49

VARIANT_STRING: C3U U26G
QUANTITATIVE_RESULT: 0.87

Hey, just so you know, these numbers are from the RNAGym collection of RNA variant scans (doi:10.7554/elife.90254).
